target: human A3AR (Homo sapiens, UniProt P0DMS8); construct: expressed in transfected cells; test: LOPAC library primary screen: single concentration (10 μM) inhibition of 25 nM CA200645 binding, PHERAstar FS
Sequence (P0DMS8 whole entry): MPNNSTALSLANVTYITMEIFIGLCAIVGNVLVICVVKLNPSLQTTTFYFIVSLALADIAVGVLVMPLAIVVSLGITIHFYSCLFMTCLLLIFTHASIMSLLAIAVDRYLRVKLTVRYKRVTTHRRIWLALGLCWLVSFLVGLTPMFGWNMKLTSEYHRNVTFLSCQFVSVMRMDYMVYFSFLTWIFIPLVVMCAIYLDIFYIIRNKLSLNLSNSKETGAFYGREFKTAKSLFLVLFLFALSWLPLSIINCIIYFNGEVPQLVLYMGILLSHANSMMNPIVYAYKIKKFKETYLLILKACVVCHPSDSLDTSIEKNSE
Would you kindly list % 25 nM CA200645 binding for each of these compounds?
One number for each entry, in %.

Example entries and their recorded answers appear below.
{"Compound": "CSC(=N)N.CSC(=N)N.O=S(=O)(O)O [S-Methylisothiourea hemisulfate]", "Reported": 112.2}
{"Compound": "CC(C)N(CCC(=O)c1ccc2ccccc2c1)Cc1ccccc1.Cl [ZM 39923 hydrochloride]", "Reported": 115.5}
{"Compound": "O=c1[nH]c2cc(C(F)(F)F)ccc2n1-c1cc(C(F)(F)F)ccc1O [NS-1619]", "Reported": 94.9}

Would you mind telling me what % 25 nM CA200645 binding value was observed for CN1C[C@H](C(=O)N[C@]2(C)O[C@@]3(O)[C@@H]4CCCN4C(=O)[C@H](Cc4ccccc4)N3C2=O)C[C@@H]2c3cccc4[nH]cc(c34)C[C@H]21 [Dihydroergotamine methanesulfonate] ? 99.2

====

target: human A3AR (Homo sapiens, UniProt P0DMS8); construct: expressed in transfected cells; experiment: LOPAC library primary screen: single concentration (10 μM) inhibition of 25 nM CA200645 binding, PHERAstar FS
Structures can show the parent of a compound that is named as a salt.
Property: % 25 nM CA200645 binding (%)
One number for each entry, in %.

{"Compound": "CC(C)(Oc1ccc(CCNC(=O)c2ccc(Cl)cc2)cc1)C(=O)O [Bezafibrate]", "Property": "% 25 nM CA200645 binding", "Reported": 93.0}
{"Compound": "Nc1nc(OCC2CCCCC2)c2[nH]cnc2n1", "Property": "% 25 nM CA200645 binding", "Reported": 53.9}
{"Compound": "Cl.NC1(C(=O)O)CC1", "Property": "% 25 nM CA200645 binding", "Reported": 88.3}
{"Compound": "O=c1cc(-c2ccccc2F)[nH]c2cc3c(cc12)OCO3 [CHM-1 hydrate]", "Property": "% 25 nM CA200645 binding", "Reported": 97.3}
{"Compound": "C[N+]1(C)CCC(OC(=O)C(c2ccccc2)c2ccccc2)CC1.[I-] [4-DAMP methiodide]", "Property": "% 25 nM CA200645 binding", "Reported": 84.9}
{"Compound": "O=c1ccn([C@@H]2O[C@H](COP(=O)([O-])OP(=O)([O-])O)[C@@H](O)[C@H]2O)c(=O)[nH]1.[Na+].[Na+] [Uridine 5'-diphosphate sodium]", "Property": "% 25 nM CA200645 binding", "Reported": 100.6}
{"Compound": "Nc1nc(OCc2ccccc2)c2nc[nH]c2n1", "Property": "% 25 nM CA200645 binding", "Reported": 65.0}
{"Compound": "NC(=O)c1ncn([C@@H]2O[C@H](CO)[C@@H](O)[C@H]2O)n1", "Property": "% 25 nM CA200645 binding", "Reported": 103.3}

Below are 2 compounds. Give each one its % 25 nM CA200645 binding.
1. CN(C)CCCN1c2ccccc2CCc2ccc(Cl)cc21 [Clomipramine hydrochloride]
2. C#CCOC(=O)C1=CCCN(C)C1 [Arecaidine propargyl ester hydrobromide]

1: 99.4; 2: 96.0

Could I get % 25 nM CA200645 binding for every one of these entries?
1. CN(C(=O)Cc1ccc(Cl)c(Cl)c1)C(CN1CCCC1)c1cccc(OCC(=O)O)c1.Cl (stereo not drawn) [ICI 204,448 hydrochloride]
2. COc1ccc(OC)c(C(O)C(C)N)c1 (stereo not drawn) [Methoxamine hydrochloride]
3. Nc1ncnc2c1nc(Sc1ccc(Cl)cc1)n2C1OC2COP(=O)(O)OC2C1O (stereo in doubt) [8-(4-Chlorophenylthio)-cAMP sodium]
4. COc1ccc(Cl)cc1C(=O)NCCc1ccc(S(=O)(=O)NC(=O)NC2CCCCC2)cc1 [Glybenclamide]
5. N[C@H]1CON=C1O

1: 104.6; 2: 132.3; 3: 91.8; 4: 92.8; 5: 98.0
